Answer each item with its documented purified protein yield per well.
TEST_PROTOCOL: purified protein yield per well (BCA); higher = higher soluble expression

Past entries and their recorded results:
ADNPYQRGPDPTERSVTARRGPFAIDEISVNGGIGAGFNRGTIFYPTDRSQGTFGAVAVIPGFLSPESLVRWFGPRLASQGFVVMTLTTNGLTDTPESRSEQLLAALDYLTTRSQVRDRIDPSRLAVMGHSMGGGGSLAAAAKRPTLRAAIPLAPWSLTKNWSNLTVPTLIIGAENDNVAPVAGHSERFYDSMTNVPEKAYLEMAGGNHVDPTAESDLVAKFTISWLKRFVDDDTRYDQFLCPAPRPNRQISEYRDTCPHS [DP029] :: < 25 µg
QSTTPTSSALNATAGPLAVSTSTVTLASGFGGGTIYYPTTAGSYGLIALCPGFTATETSLAWLARRLASWGFVVVNMNTTTTMDQPASRATQLMAALKYALNSSSSAVRARIDPSRLAVAGHSMGGGGTLIAARDNPTLKAGYPLTPWNSSTNFSGVTVPTMIIGSDGDTVAPVAQHARPFYASLPAATFKAYGELNNATHFTPNSTSTPIGRYGVAWMKRFLDGDTRYSTFLCGSEHAAYATSLVFDRYNQNCPY [ESM187] :: < 25 µg

Turning now to a further record.
Lab note: APAPATAAAADNPYERGPDPTEDSIEAARGPYDVAETSVSSWVVSGFGGGTVYYPRETDDGTFGAVAVAPGYTASQSSMAWLGPRLASQGFVVFTIDTLTRLDQPASRGRQLLAALDYLTERSAVRNRIDASRLGVMGHSMGGGGTLEAAADRPSLQAAVPLAPWNLDKTWGELRVPTMIIGADGDSIAPVSSHSEPFYESLPGGLDRAYLELNNADHFTPNLPDTTLAKYSLSWLKRFIDNDTRYEQFLCPLPRPGWYIEEYRGTCPHLS [TEP124] gave purified protein yield per well of < 25 µg

Entry source: the supplement of paper PMC12455559
